The values you see were collected from PubChem BioAssay AID1996.

- Experimental Conditions: buffer; pH 7.4; 200.0 µM
log10(solubility kinetic) reference
Observation Type: log10(solubility kinetic) (log10 of the value in µg/mL)

[[record]]
compound = "COC(=O)c1cn(S(=O)(=O)c2ccccc2)c2ccccc12"
reported_measurement = 0.30

[[record]]
compound = "CCc1c(C(=O)Nc2ccccc2C(N)=O)csc1C"
reported_measurement = 0.56

[[record]]
compound = "O=C(COC(=O)/C=C/c1ccc(F)cc1)NC1CC1"
reported_measurement = 1.46

[[record]]
compound = "CCN1CCN(C(=S)NC(CC(=O)c2ccccc2)c2ccccc2)CC1 (stereo not drawn)"
reported_measurement = 1.70

[[record]]
compound = "COc1ccc(NS(=O)(=O)c2cccc(C(=O)NCC(c3cccs3)N3CCOCC3)c2)cc1 (stereo not drawn)"
reported_measurement = 1.85

[[record]]
compound = "O=C(CNC(=O)OCc1ccccc1)Nc1ccc(F)cc1"
reported_measurement = 1.01

[[record]]
compound = "C[C@@H]1NC(=O)N(c2ccc(F)cc2)C1=O"
reported_measurement = 1.49

[[record]]
compound = "O=C(/C=C/c1ccccc1)Nc1cccnc1Cl"
reported_measurement = 1.59

[[record]]
compound = "O=C(NC1CC1)C1CCN(C(=O)c2ccc(Cl)cc2)CC1"
reported_measurement = 1.66

[[record]]
compound = "COc1cccc(C(C)NC(=O)C2CCCO2)c1 (stereo not drawn)"
reported_measurement = 1.56

[[record]]
compound = "O=[N+]([O-])c1ccc(Oc2cccnc2)nc1"
reported_measurement = 1.41

[[record]]
compound = "COc1ccc(CCNC(=O)C2CCCN(c3ncccn3)C2)cc1 (stereo not drawn)"
reported_measurement = 1.69

[[record]]
compound = "Cc1c(C(=O)N2CCCc3ccccc32)oc2ccccc12"
reported_measurement = 0.76

[[record]]
compound = "Clc1ccc(N=c2ssnc2Cl)nc1"
reported_measurement = 0.00

[[record]]
compound = "CCOc1ccc(N2CC(C(=O)NCc3ccccn3)CC2=O)cc1 (stereo not drawn)"
reported_measurement = 1.57

[[record]]
compound = "CN(C)C(CNC(=O)c1ccc2ccccc2n1)c1ccccc1 (stereo not drawn)"
reported_measurement = 1.44

[[record]]
compound = "CN(C(=O)COC(=O)c1ccc(C#N)cc1)c1ccccc1"
reported_measurement = 1.29

[[record]]
compound = "CCc1cccc(NC(=O)COC(=O)/C=C/c2cccs2)c1"
reported_measurement = 0.91

[[record]]
compound = "NS(=O)(=O)c1ccc(N=Cc2c(O)c3ccccc3oc2=O)cc1"
reported_measurement = 1.30

[[record]]
compound = "CCc1ccc(NC2=CC(=O)C(=O)c3ccccc32)cc1"
reported_measurement = 0.38

[[record]]
compound = "COc1ccc(C)cc1NC(=O)Nc1ccc2c(c1)CCC2"
reported_measurement = -0.15

[[record]]
compound = "NC(=S)COc1ccccc1"
reported_measurement = 1.26

[[record]]
compound = "CCC(Oc1ccccc1F)C(=O)NCCN1CCOCC1 (stereo not drawn)"
reported_measurement = 1.65

[[record]]
compound = "O=C(CN1C(=O)CCSc2ccccc21)NC1CCCCC1"
reported_measurement = 1.64


====

- Experimental Conditions: buffer; pH 7.4; 200.0 µM
Observation Type: log10 solubility kinetic (log10 of the value in µg/mL)

[[record]]
compound = "Cn1c(=O)c2ccccc2n(CC(=O)NC2CCCCC2)c1=O"
reported_measurement = 0.90

[[record]]
compound = "CCN(CC)CCn1c(C)nc2ccccc21.Cl"
reported_measurement = 1.61

[[record]]
compound = "O=C(N[C@@H](Cc1ccccc1)C(=O)OCc1ccccc1)c1ccco1"
reported_measurement = 1.51

[[record]]
compound = "CC(C)C(=O)N1CCN(S(=O)(=O)c2ccc3ccccc3c2)CC1"
reported_measurement = 1.37

[[record]]
compound = "O=C(NC(c1ccccc1)c1ccccc1)c1ccc(CO)cc1"
reported_measurement = 1.65

[[record]]
compound = "Cc1ccc(S(=O)(=O)N2CCN(Cc3ccccc3)CC2)cc1"
reported_measurement = 0.70

[[record]]
compound = "N#CCCN(Cc1ccccc1)C(=S)Nc1ccc(F)cc1"
reported_measurement = 1.46

[[record]]
compound = "Cn1c(N)c(C(=O)COC(=O)COc2cc(Cl)c(Cl)cc2Cl)c(=O)n(C)c1=O"
reported_measurement = 0.60

[[record]]
compound = "CCN1CC2([N+](=O)[O-])CC=C(Cl)C([N+](=O)[O-])(C1)C2 (configuration not stated)"
reported_measurement = 1.45

[[record]]
compound = "CCN(CC)C(=O)CSc1nc(C)cc(C)c1C#N"
reported_measurement = 1.18

[[record]]
compound = "CCCCC(=O)Nc1ccccc1N1CCN(c2ccc(F)cc2)CC1"
reported_measurement = 0.63

[[record]]
compound = "Cc1nc(N2CCN(c3ccccc3)CC2)[nH]c(=O)c1C"
reported_measurement = 1.60

[[record]]
compound = "COc1ccccc1N1CN(S(=O)(=O)c2ccc(C)cc2)c2nc3ccccc3nc21"
reported_measurement = 0.00

[[record]]
compound = "COc1ccc(Nc2ncc(C#N)c(N)n2)c(OC)c1"
reported_measurement = 0.82

[[record]]
compound = "Cc1ccc(S(=O)(=O)N2CCN(C(=O)COC(=O)c3cc([N+](=O)[O-])ccc3NCCO)CC2)c(C)c1"
reported_measurement = 1.23

[[record]]
compound = "O=C(c1ccccc1)c1cnc[nH]1"
reported_measurement = 1.41


====

- Experimental Conditions: buffer; pH 7.4; 200.0 µM
Observation Type: solubility kinetic

[[record]]
molecule = "CCOC(=O)CCSc1n[nH]c(=S)s1"
observation_type = "solubility kinetic"
reported_measurement = "> 37.6 µg/mL"

[[record]]
molecule = "COc1ccc(NC(=O)c2cccnc2N2CCOCC2)cc1"
observation_type = "solubility kinetic"
reported_measurement = "> 47 µg/mL"

[[record]]
molecule = "CCOC(=O)c1cc2cc(OCc3ccccc3)ccc2nc1C"
observation_type = "solubility kinetic"
reported_measurement = "< 0.7 µg/mL"

[[record]]
molecule = "O=C(COC(=O)c1cnccn1)NC1CCCc2ccccc21 (centres undefined)"
observation_type = "solubility kinetic"
reported_measurement = "> 46.7 µg/mL"

[[record]]
molecule = "Cc1ccc(S(=O)(=O)NCCN2CCOCC2)s1"
observation_type = "solubility kinetic"
reported_measurement = "> 43.6 µg/mL"

[[record]]
molecule = "CCn1c(=O)c(C(=O)NCCCc2ccccc2)c(O)c2ccccc21"
observation_type = "solubility kinetic"
reported_measurement = "< 0.4 µg/mL"

[[record]]
molecule = "COc1ccc(/C=N/NC(N)=S)cc1"
observation_type = "solubility kinetic"
reported_measurement = "> 31.4 µg/mL"

[[record]]
molecule = "Cc1cccc(NC(=O)Cn2cnc3c(oc4ccccc43)c2=O)c1"
observation_type = "solubility kinetic"
reported_measurement = "< 0.2 µg/mL"

[[record]]
molecule = "CN1C(=S)SC(/[N+]([O-])=C/c2c(F)cccc2Cl)C1(C)C (centres undefined)"
observation_type = "solubility kinetic"
reported_measurement = "> 49.9 µg/mL"

[[record]]
molecule = "Cc1cccc(NC(=O)COC(=O)C2COc3ccccc3O2)c1C (centres undefined)"
observation_type = "solubility kinetic"
reported_measurement = "> 51.2 µg/mL"

[[record]]
molecule = "O=C(c1c(F)cccc1F)N1CCCC1"
observation_type = "solubility kinetic"
reported_measurement = "> 31.7 µg/mL"

[[record]]
molecule = "Cl.OCCN1CCN(c2nc3ccccc3nc2-c2ccccc2)CC1"
observation_type = "solubility kinetic"
reported_measurement = "> 55.6 µg/mL"

[[record]]
molecule = "O=C(Nc1ccc(NC(=O)c2ccccc2F)cc1)c1ccccc1F"
observation_type = "solubility kinetic"
reported_measurement = "< 0.4 µg/mL"

[[record]]
molecule = "Cc1cc(C(=O)N(C)CC(=O)Nc2ccc(F)c(F)c2F)no1"
observation_type = "solubility kinetic"
reported_measurement = "> 49.1 µg/mL"

[[record]]
molecule = "COc1cc(Cl)c(C)cc1NC(=O)CN1C(=O)C2CC=CCC2C1=O (centres undefined)"
observation_type = "solubility kinetic"
reported_measurement = "> 54.4 µg/mL"

[[record]]
molecule = "O=C(Nc1cccc([N+](=O)[O-])c1)C1C2/C=C\\CCCCC21 (centres undefined)"
observation_type = "solubility kinetic"
reported_measurement = "< 0.3 µg/mL"

[[record]]
molecule = "CCOC(=O)CCNCc1ccc(OC)c(OC)c1.Cl"
observation_type = "solubility kinetic"
reported_measurement = "> 45.6 µg/mL"

[[record]]
molecule = "O=C(c1ccc([N+](=O)[O-])cc1)N1CCN(C(=O)c2cccnc2)CC1"
observation_type = "solubility kinetic"
reported_measurement = "> 51.1 µg/mL"

[[record]]
molecule = "Cn1cccc1C(=O)OCc1ccc(F)cc1"
observation_type = "solubility kinetic"
reported_measurement = "< 0.5 µg/mL"


====

Entries annotated with measured solubility kinetic
- Experimental Conditions: buffer; pH 7.4; 200.0 µM
Observation Type: solubility kinetic

[[record]]
cpd_smiles = "CC(=O)CC(C)(C)Nc1nc2ccc([N+](=O)[O-])cc2o1"
observation_type = "solubility kinetic"
reported_measurement = "> 41.6 µg/mL"

[[record]]
cpd_smiles = "Brc1cccc(Nc2nc(-c3cccnc3)cs2)c1"
observation_type = "solubility kinetic"
reported_measurement = "< 0.2 µg/mL"

[[record]]
cpd_smiles = "Cc1cc(=O)[nH]c2c3ccccc3nn12"
observation_type = "solubility kinetic"
reported_measurement = "> 29.9 µg/mL"

[[record]]
cpd_smiles = "COC(=O)CSc1[nH]c2cc(C)ccc2c1[N+](=O)[O-]"
observation_type = "solubility kinetic"
reported_measurement = "> 42 µg/mL"

[[record]]
cpd_smiles = "Cc1ccc2c(c1)=C(c1ccccc1)N(O)CC(=O)N=2"
observation_type = "solubility kinetic"
reported_measurement = "> 39.9 µg/mL"

[[record]]
cpd_smiles = "Cc1ccc(S(=O)(=O)NCC(=O)OCC(=O)Nc2cccc(S(=O)(=O)N3CCOCC3)c2)cc1"
observation_type = "solubility kinetic"
reported_measurement = "> 76.7 µg/mL"

[[record]]
cpd_smiles = "Cc1cc(C)n2c(SCC(=O)Nc3cccc(S(N)(=O)=O)c3)nnc2n1"
observation_type = "solubility kinetic"
reported_measurement = "> 58.9 µg/mL"

[[record]]
cpd_smiles = "CCN(CC)S(=O)(=O)c1ccc(OC)c(NC(=O)CSCc2c(C)noc2C)c1"
observation_type = "solubility kinetic"
reported_measurement = "> 66.2 µg/mL"

[[record]]
cpd_smiles = "C/C(CC(=O)Nc1ccc(Cl)cc1C(F)(F)F)=N\\NC(N)=S"
observation_type = "solubility kinetic"
reported_measurement = "> 52.9 µg/mL"

